- Test system: DU-145
- assay notes: NCI tumour cell line growth inhibition, 48 h
Activity calls are given as the source filed them. Cut-off read from the data, not from the text of the source: active = GI50 up to about 1.1 µM and inactive = higher. Where a SMILES comes first, the peptide text is derived from it. [ ]: non-standard residue; d: D form. The star is where a group is joined. Phe(4-NO2) = N[CH](Cc1ccc([N+](=O)[O-])cc1)C(=O)O; Cbz = O=C(OCc1ccccc1)*

# molecule, target under test, GI50
rows = [
    ("C=C1C(=O)OC2CC3(C)CCCC(C)C3=CC12 (stereo not given)", "DU-145", "3.67 µM (inactive)"),
    ("CSC1=N/C(=C\\c2ccc(C)cc2)C(=O)N1", "DU-145", "> 100 µM (inactive)"),
    ("CCOC(=O)CCC(NC(=O)OCc1ccccc1)C(=O)NC(CCC(=O)OCC)C(=O)NC(Cc1ccc([N+](=O)[O-])cc1)C(=O)NC(CCC(=O)OCC)C(=O)NC(CCC(=O)OCC)C(=O)OCC (stereo not given) (Cbz-E(OEt)E(OEt)[Phe(4-NO2)]E(OEt)E(OEt)-OEt; configuration not given here)", "DU-145", "> 100 µM (inactive)"),
    ("COc1ccc(/C=N/c2c(O)ccc3ccccc23)cc1OC", "DU-145", "> 100 µM (inactive)"),
    ("COC(=O)OC[C@H]1O[C@@H](n2cc(C)c(=O)[nH]c2=O)CC1OC(=O)OC (stereo not given in full)", "DU-145", "> 100 µM (inactive)"),
]

###

- System: TK-10
- assay notes: NCI tumour cell line growth inhibition, 48 h
Activity calls are given as the source filed them. Rule as the data show it: active = GI50 up to about 1.1 µM and inactive = higher. Residues, ends and D or L forms follow the SMILES beside them.
Possible outcomes: active, inactive

# compound, label value
records = [
    ("C/C(=C1\\N=C(c2ccccc2)OC1=O)c1ccccc1", "inactive"),
    ("CCC1(OC(=O)CN)C(=O)OCc2c1cc1n(c2=O)Cc2cc3ccccc3nc2-1 (centres undefined)", "active"),
    ("COC(=O)c1cc(C)n(NC(=O)OC(C)(C)C)c1C", "inactive"),
    ("CCCCC1(N=[N+]=[N-])C(=O)c2cccc3c2N(CCC3)C1=O (centres undefined)", "inactive"),
    ("CC1C(c2ccc3c(c2)OCO3)c2cc3c(cc2OC1N1CCCC1)OCO3 (centres undefined)", "inactive"),
    ("O=C1CCC(c2ccccc2)=NN1c1nsc2ccccc12", "inactive"),
    ("CC1C(=O)N(c2ccccc2)NC12CCCc1ccccc12 (centres undefined)", "inactive"),
    ("CCOC1=NC(O)c2cccn2-c2sccc21 (centres undefined)", "inactive"),
    ("FC(F)(F)c1cccc(-c2nc3nc(Cl)c(Cl)nc3[nH]2)c1", "inactive"),
    ("CC1CC[C@@H](C(C)C)[C@H](Oc2nnc(C3OC(CO)C(O)C3O)o2)C1 (some centres undefined)", "inactive"),
    ("COc1ccc(/C=N/n2c(C)nc3c(sc(=S)n3-c3ccccc3)c2=O)cc1", "inactive"),
    ("CC1=CC2=C(OCO1)C(=O)c1ccccc1C2=O", "inactive"),
    ("CCOC(=O)CCc1ccc(NC(=O)/C=C/c2ccc([N+](=O)[O-])o2)cc1", "inactive"),
    ("O=c1c2nc3ccccc3c(=O)n2ncn1-c1ccccc1Cl", "inactive"),
    ("CCC(C)C(NC(=O)C1CCCN1)C(=O)NC(C(=O)NCC(=O)NC(CC(N)=O)C(=O)NC(CC(C)C)C(=O)NC(CC(C)C)C(=O)NC(CCCCN)C(N)=O)C(C)C (centres undefined) (H-PIVGNLLK-NH2; configuration not given here)", "inactive"),
    ("Cc1nn(-c2ccccc2)c2nc3ccc(Cl)cc3c(-c3ccccc3)c12", "inactive"),
    ("C/C(=C/CNc1ncnc2c1ncn2CCC(=O)O)CO", "inactive"),
    ("OCCCCn1cc(Cn2ncc3c(O)ncnc32)nn1", "inactive"),
    ("O=C1CN2C(Cl)(Cl)C2(c2ccccc2)c2cc(Cl)ccc2N1CC1CC1 (centres undefined)", "inactive"),
]
